procedure.text: Inhibition of NDM-1 (unknown origin) using nitrocefin as substrate preincubated 10 mins followed by substrate addition measured after 20 mins
assay.readout: IC50

Query :: Return the recorded IC50 value; entry: 4-CHLOROMERCURIBENZOIC ACID
Result :: 2300 nM
